Source listed as ChEMBL document CHEMBL1201862.

- Test system: CCRF-CEM
- experimentSummary: NCI tumour cell line growth inhibition, 48 h
Calls of active or inactive are those of the source. Rule as the data show it: active = GI50 up to about 1.1 µM and inactive = higher.
Exercise: state measured GI50 for each of the compounds provided.

Worked examples follow.
>  <compound>
[O-][n+]1c(-c2ccccc2)c2nc3ccccc3nc2c2ccccc21

>  <GI50>
> 100 µM (inactive)

$$$$
>  <compound>
Nc1nc2sc3ccccc3c(=O)n2n1

>  <GI50>
> 100 µM (inactive)

$$$$
>  <compound>
Cc1cc(O)nc(NNC(C#N)c2ccc(N(C)C)cc2)n1 (stereo not given)

>  <GI50>
> 100 µM (inactive)

$$$$
>  <compound>
O=C(O)/C=C/c1ccc(O)c(O)c1

>  <GI50>
> 57.5 µM (inactive)

$$$$
>  <compound>
CCCCCC(C(O)C#N)C(O)(C(F)(F)F)C(F)(F)F (stereo not given)

>  <GI50>
> 10 µM (inactive)

$$$$

Please look at the items below and tell me GI50 for each one, in order.
1. COC(=O)[C@@](C)(COC(=O)C(C)(C)C)NC(=O)OC(C)(C)C
2. CCCC(=O)N[C@@H](Cc1cc(I)c(O)c(I)c1)C(=O)NCCCNCCCCNCCCNC(=O)[C@@H](N)CCCN=C(N)N
3. COc1cc(/C=N/N=C(\N)NO)cc(Cl)c1O
4. CCCCNS(=O)(=O)c1ccc(-c2ccc3c(c2)-c2ccc(S(=O)(=O)NCCCC)cc2S3(=O)=O)cc1

["> 100 µM (inactive)", "> 100 µM (inactive)", "38.1 µM (inactive)", "26.1 µM (inactive)"]

Please look at the items below and tell me GI50 for each one, in order.
1. CN1c2ccc(O)c(O)c2-c2cc(O)cc3c2C1CCC3 (stereo not given)
2. [N-]=[N+]=NCC(O)Cn1cnc2c(NC(=O)c3ccccc3)ncnc21 (stereo not given)
3. CNS(=O)(=O)NN(C)S(=O)(=O)c1ccc2ccccc2c1
4. NC(=O)N/N=C1\CCCCc2ccccc21

1. 2.58 µM (inactive)
2. > 100 µM (inactive)
3. > 100 µM (inactive)
4. > 10 µM (inactive)

Please look at the items below and tell me GI50 for each one, in order.
1. Cn1c2nc3ccccc3c-2cc2ccccc21 [NEOCRYPTOLEPINE]
2. O=C(CCc1cc(-c2ccccc2)[nH]c(=S)n1)Nc1ccccc1[N+](=O)[O-]

1. 3.15 µM (inactive)
2. > 100 µM (inactive)
